Quick reference: IC50 of the listed items.
- targetDesc: ProG (Bacillus subtilis, UniProt Q00777)
- Construct: full-length; pMCSG68, N-terminal His6-TEV tag removed; E. coli BL21 Gold; homodimer by SAXS
- Sequence (Q00777 whole entry): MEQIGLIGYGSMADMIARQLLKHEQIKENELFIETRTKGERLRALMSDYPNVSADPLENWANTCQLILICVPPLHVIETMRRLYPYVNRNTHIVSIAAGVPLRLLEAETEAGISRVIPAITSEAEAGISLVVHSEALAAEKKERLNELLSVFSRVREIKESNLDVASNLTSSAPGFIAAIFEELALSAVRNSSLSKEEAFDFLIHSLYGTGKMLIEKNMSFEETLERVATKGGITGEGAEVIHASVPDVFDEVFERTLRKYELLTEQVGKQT
- assayName: NAD(P)H oxidation at […] nm
Express it in mM; write the number only.

mol | measurementType | recordedMeasurement
NC(=O)c1ccc[n+]([C@@H]2O[C@H](COP(=O)(O)OP(=O)(O)OC[C@H]3O[C@@H](n4cnc5c(N)ncnc54)[C@H](OP(=O)(O)O)[C@@H]3O)[C@@H](O)[C@H]2O)c1 | IC50 | 0.23

Now examine the next entry.
Query: Give its IC50 value. Item: O=C(O)[C@@H]1CCCN1
Reply: 22.3
